All figures here come from PubChem BioAssay (NCATS).

- procedure.summary: Quantitative High-Throughput drug screen in 47 multiple myeloma cell lines against the NCATS MIPE library collection: OCIMY7_PLB cell viability assay (AID 1918987); also: nearly all actives have a fitted effect of over 65% in size
- test.conditions: OCI-MY7 myeloma viability, CellTiter-Glo ATP, 48 h; series mostly up to 45.8 µM
Inconclusive results are not listed. Active and inactive are the calls of the source. Calls follow the shape of the dose curve; as a rule, active = well fitted cell-killing curve with a large enough effect; inconclusive = small, poorly fitted or top-dose-only effect, or effect the other way; inactive = no such curve, though single readings can be large or run the other way.
Respond with a class label; see 1 (yes) for active, 0 (no) for inactive

C=C(C)[C@H]1Cc2c(ccc3c2O[C@@H]2COc4cc(OC)c(OC)cc4[C@@H]2C3=O)O1 : 1 (yes)
C[C@@H]1O[C@@H](O[C@H]2C[C@@H](O)[C@]3(CO)[C@H]4[C@H](O)C[C@]5(C)[C@@H](C6=CC(=O)OC6)CC[C@]5(O)[C@@H]4CC[C@]3(O)C2)[C@H](O)[C@H](O)[C@H]1O : 1 (yes)
O=P1(NCCCl)OCCCN1CCCl (stereo unspecified) : 1 (yes)
Cn1c(CCCC(=O)O)nc2cc(N(CCCl)CCCl)ccc21 : 1 (yes)

IN: What outcome does the record of this test show for Cn1cc(C2=C(c3cn(C4CCN(Cc5ccccn5)CC4)c4ccccc34)C(=O)NC2=O)c2ccccc21 ?
OUT: 1 (yes)

IN: Called result for Fc1ccc(C(OCCN2CCN(CCCc3ccccc3)CC2)c2ccc(F)cc2)cc1
OUT: 1 (yes)

IN: Query: recorded result category for N[C@@H](Cc1ccc(N(CCCl)CCCl)cc1)C(=O)O in this test
OUT: 1 (yes)

IN: Tell me the assay call for C[C@@H]1[C@@H](C(=O)C[C@H]2O[C@@H]3O[C@]4(C)CC[C@@H]5[C@H](C)CC[C@@H]([C@H]2C)[C@@]35OO4)O[C@@H]2O[C@]3(C)CC[C@H]4[C@H](C)CC[C@@H]1[C@@]24OO3 please.
OUT: 1 (yes)

---

- test.conditions: Ebola virus entry assay, reporter ratio channel; Channel type: primary
The source made the active and inactive calls. How the calls were made is not given here.
reported.endpoint: AC50

CN(C)CC/C=C1\c2ccccc2COc2ccccc21 : 14.1 µM (active)
COc1ccccc1OCCNCC(O)COc1cccc2[nH]c3ccccc3c12 (centres undefined) : 2.24 µM (active)
C=C[C@H]1CN2CC[C@H]1C[C@@H]2[C@@H](O)c1ccnc2ccc(OC)cc12 : 35.5 µM (active)

Record CC(COc1ccccc1)N(CCCl)Cc1ccccc1 (centres undefined) , field AC50: 17.8 µM (active)

Form field AC50, entry C[C@@H]1O[C@@H](O[C@H]2C[C@@H](O)[C@]3(CO)[C@H]4[C@H](O)C[C@]5(C)[C@@H](C6=CC(=O)OC6)CC[C@]5(O)[C@@H]4CC[C@]3(O)C2)[C@H](O)[C@H](O)[C@H]1O : 0.708 µM (active)

Item: Fc1ccc(C(OCCN2CCN(CCCc3ccccc3)CC2)c2ccc(F)cc2)cc1 | AC50: 2.82 µM (active)

Consider COC(=O)C1=C(C)NC(C)=C(C(=O)OCC(C)C)C1c1ccccc1[N+](=O)[O-] (centres undefined) . Its measured AC50 is 17.8 µM (active)

Per the records, this compound ( Cc1ccc(-n2nc(C(C)(C)C)cc2NC(=O)Nc2ccc(OCCN3CCOCC3)c3ccccc23)cc1 ) has AC50 equal to 20 µM (active)

Looking up C[C@@H](NCCCc1cccc(C(F)(F)F)c1)c1cccc2ccccc12 , I found its AC50 recorded as 3.55 µM (active)
